- target.or.system: fusion protein corresponding to mouse Abl (27-end) (Mus musculus, UniProt P00520)
- Construct: fusion protein corresponding to mouse Abl (27-end)
- Sequence (P00520 27-1123 limits assumed): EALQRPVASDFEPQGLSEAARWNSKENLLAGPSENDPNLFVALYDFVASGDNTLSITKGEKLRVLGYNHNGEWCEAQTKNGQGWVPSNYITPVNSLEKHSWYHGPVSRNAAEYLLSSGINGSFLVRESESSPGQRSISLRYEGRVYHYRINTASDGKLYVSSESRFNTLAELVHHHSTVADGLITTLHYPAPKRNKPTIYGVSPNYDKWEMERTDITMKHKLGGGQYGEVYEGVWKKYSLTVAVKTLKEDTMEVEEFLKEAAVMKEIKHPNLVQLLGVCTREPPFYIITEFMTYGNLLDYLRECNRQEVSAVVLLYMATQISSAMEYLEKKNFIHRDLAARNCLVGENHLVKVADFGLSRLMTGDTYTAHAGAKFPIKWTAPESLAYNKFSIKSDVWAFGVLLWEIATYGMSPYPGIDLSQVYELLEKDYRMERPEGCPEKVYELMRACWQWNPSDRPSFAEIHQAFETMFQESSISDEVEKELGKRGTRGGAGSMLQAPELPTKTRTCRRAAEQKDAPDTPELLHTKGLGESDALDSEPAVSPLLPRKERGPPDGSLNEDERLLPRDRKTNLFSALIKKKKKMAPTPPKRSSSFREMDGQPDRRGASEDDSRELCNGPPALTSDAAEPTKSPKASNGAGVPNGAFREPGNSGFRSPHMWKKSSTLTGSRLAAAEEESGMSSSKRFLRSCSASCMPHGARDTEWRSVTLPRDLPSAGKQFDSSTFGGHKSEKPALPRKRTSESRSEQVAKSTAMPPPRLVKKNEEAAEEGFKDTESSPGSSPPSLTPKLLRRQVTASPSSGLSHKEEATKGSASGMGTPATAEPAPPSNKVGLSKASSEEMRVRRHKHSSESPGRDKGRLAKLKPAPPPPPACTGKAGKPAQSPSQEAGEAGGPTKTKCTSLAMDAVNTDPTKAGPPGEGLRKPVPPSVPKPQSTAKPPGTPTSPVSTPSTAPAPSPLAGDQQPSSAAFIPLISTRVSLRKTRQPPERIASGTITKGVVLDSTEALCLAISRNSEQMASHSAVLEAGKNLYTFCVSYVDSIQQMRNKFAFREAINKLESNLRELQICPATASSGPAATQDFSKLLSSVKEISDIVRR
- test.details: IC50 determination for inhibitors of Abl kinase (IMAP fluorescence polarization)
- condition.set: 22.8 uM ATP, 37° C., 60 minutes; read-out: IC50 Abl kinase inhibition
quantity.name: IC50 (nM)

I = O=C(Nc1ccc(N2CCOCC2)cc1)c1ccc(Cl)c(C(=O)Nc2cnc3[nH]ccc3c2)c1
II = O=C(Nc1ccc(Cl)c(C(=O)Nc2cnc3[nH]ccc3c2)c1)c1ccc(-c2ccccc2)cc1
Q. Lab note: check whether I or II has the lower measured IC50. Reply briefly: the label of your chosen item.
A. II

The measured values listed here are drawn from patent US8067599B2.
